Recorded values, source patent US20240076389A1.

# Target under test: T1, mouse AXL extracellular domain (Sino cat. 51026-M08H) (mouse, UniProt Q00993 19-445)
# T1 construct: extracellular domain; Bought protein; also called mouse AXL ECD
# T1 sequence (looked up): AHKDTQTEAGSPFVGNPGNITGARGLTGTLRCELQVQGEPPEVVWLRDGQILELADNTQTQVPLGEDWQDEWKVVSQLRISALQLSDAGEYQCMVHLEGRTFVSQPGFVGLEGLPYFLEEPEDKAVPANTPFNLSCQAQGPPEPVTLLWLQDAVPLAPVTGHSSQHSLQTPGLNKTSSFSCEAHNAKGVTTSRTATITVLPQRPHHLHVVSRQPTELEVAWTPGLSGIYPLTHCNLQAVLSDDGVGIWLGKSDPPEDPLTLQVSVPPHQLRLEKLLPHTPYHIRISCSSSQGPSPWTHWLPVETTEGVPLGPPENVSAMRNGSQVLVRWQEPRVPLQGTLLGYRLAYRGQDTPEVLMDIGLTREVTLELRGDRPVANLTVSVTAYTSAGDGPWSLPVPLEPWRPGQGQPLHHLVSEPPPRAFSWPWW
# Experiment: ELISA on coated mouse AXL ECD (100 ng/well)

- Binder: "hFC-F111-5E9 (antibody, human IgG1, kappa, V domains shown, Chimeric mAb, human IgG1 / human kappa constant regions; also called mAb F111-5E9; hIgG-F111-5E9) VH: QIQLVQSGPELKKPGETVKISCKASGYTFTKYGMNWVKQAPGKGLKWMGWINTYTGEPTYADDFKGRFAFSLETSASTAYLQINNLTTEDMVTYFCAKGGYYSNPIYPMDYWGQGTSVTVSS VL: DIQMTQTTSSLSASLGDRVTISCRASQDINNYLNWYQQKPDGTVKLLIYYISRLHSGVPSRFSGSGSGTDYSLTISNLELEDVATYFCQQGNTLPFTFGSGTKLEIKR"
  binding result: "no binding"
- Binder: "hFC-F107-8D12 (antibody, human IgG1, kappa, V domains shown, Chimeric mAb, human IgG1 / human kappa constant regions; also called mAb F107-8D12; chimeric F107-8D12) VH: QVQLQQPGAELVKPGASVQLSCKASGYTFISFWINWVKQRPGQGLEWMGNIFPGSSSTNYNEKFKSKATLTVDKSSSTAYMQLSSLTSEDSAVYFCARDYYGGSPDYWGQGTTLTVSS VL: DIVMSQSPSSLAVSAGERVTMSCKSSQSLLNTRTRKNYLAWYQQKPGQSPKLLIYWASTRESGVPDRFTGSGSGTDFTLTISSVQAEDLAVYYCKQSYNLWTFGGGTKLEIKR"
  binding result: "no binding"
- Binder: "mIgG2 F155-3C7 (antibody, V domains shown, Printed as mIgG2 (mouse IgG2)) VH: QVQLQQPGTELVKPGASVKLSCKASGYIFTNFWINWVKQRPGQGLEWIGNIFPGSNSSNYNEKFKNKATLTVDKSSSTAYMHLSSLTSEDSAVYYCVRDYYGGSPDYWGQGTTLTVSS VL: DIVMSQSPSSLAVSAGEKVTMSCKSSQSLLNSKTRKNYLAWYQQKPGQSPKLLIYWASTRESGVPARFTGSGSGTDFTLTISSVQAEDLAIYYCKHSYNLWTFGGGTKLEIR"
  binding result: "no binding"
